# EC50 values compiled below
# targetSystem: T1, human TIM-3 full length, overexpressed on CHO-S cells (human, UniProt Q8TDQ0 22-301)
# T1 construct: cells fixed with 4% PFA on plates; also called HAVCR2; Tim-3-overexpressing CHO-S cells
# experimentNotes: cell-based ELISA on fixed CHO-S cells overexpressing human TIM-3;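 further: antibody binding at serial dilutions to PFA-fixed cells for 1 h at 37 °C, read as TMB colour signal after acid stop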
Please give a number only; it is taken to be in nM.

Look over these answered cases.
binder: h1701-010 (antibody, human IgG4 S228P, kappa, V domains shown, Humanized IgG4 (S228P)/kappa) VH: QVQLVQSGAEVKKPGASVKVSCKASGYTFTDYYMNWVRQAPGQGLEWMGDIIPNNGGSKYNQKFKDRVTMTTDTSTSTAYMELRSLRSDDTAVYYCATWGYGSSYRWFDYWGQGTLVTVSS VL: DIQMTQSPSSLSASVGDRVTITCLASQPIGIWLAWYQQKPGKSPKLLIYAATSLADGVPSRFSGSGSGTDFTFTISSLQPEDIATYYCQQLYSSPWTFGGGTKVEIKR
property: EC50
observedValue: 0.069

binder: h1701-005 (antibody, human IgG4 S228P, kappa, V domains shown, Humanized IgG4 (S228P)/kappa) VH: QVQLVQSGAEVKKPGASVKVSCKASGYTFTDYYMNWVRQAPGQGLEWMGDIIPNNGGSKYNQKFKDRVTMTTDTSTSTAYMELRSLRSDDTAVYYCARWGYGSSYRWFDYWGQGTLVTVSS VL: DIQMTQSPSSLSASVGDRVTITCLASQPIGIWLAWYQQKPGKAPKLLIYAATSLADGVPSRFSGSGSGTDFTFTISSLQPEDIATYYCQQLYSSPWTFGGGTKVEIKR
property: EC50
observedValue: 0.602

binder: h1799-017 (antibody, human IgG4 S228P, kappa, V domains shown, Humanized IgG4 (S228P)/kappa) VH: EVKLVESGGGLVQPGGSLRLSCAASGFTFSDYYMAWVRQAPGKGLEWVANINYDGSSTYYLDSLKSRFTISRDNAKNSLYLQMNSLKAEDTAVYYCARDVGYYGGNYGFAYWGQGTLVTVSS VL: DIQMTQSPSSLSASVGDRVTITCRASDNIYSYLAWYQQKPGKAPQLLVYNAKTLAEGVPSRFSGSGSGTDFTLTISSLQPEDFATYYCQQHYGSPLTFGQGTKLEIKR
property: EC50
observedValue: 0.194

binder: h1701-006 (antibody, human IgG4 S228P, kappa, V domains shown, Humanized IgG4 (S228P)/kappa) VH: QVQLVQSGAEVKKPGASVKVSCKASGYTFTDYYMNWVRQAPGQGLEWMGDIIPNNGGSKYNQKFKDRVTMTTDTSTSTAYMELRSLRSDDTAVYYCARWGYGSSYRWFDYWGQGTLVTVSS VL: DIQMTQSPSSLSASVGDRVTITCLASQPIGIWLAWYQQKPGKSPKLLIYAATSLADGVPSRFSGSGSGTDFTFTISSLQPEDIATYYCQQLYSSPWTFGGGTKVEIKR
property: EC50
observedValue: 0.735

binder: h1799-016 (antibody, human IgG4 S228P, kappa, V domains shown, Humanized IgG4 (S228P)/kappa) VH: EVKLVESGGGLVQPGGSLRLSCAASGFTFSDYYMAWVRQAPGKGLEWVANINYDGSSTYYLDSLKSRFTISRDNAKNSLYLQMNSLKAEDTAVYYCARDVGYYGGNYGFAYWGQGTLVTVSS VL: DIQMTQSPSSLSASVGDRVTITCRASDNIYSYLAWYQQKPGKAPKLLVYNAKTLAEGVPSRFSGSGSGTDFTLTISSLQPEDFATYYCQQHYGSPLTFGQGTKLEIKR
property: EC50
observedValue: 0.117

Qu. Suppose we examine the binder h1701-014 (antibody, human IgG4 S228P, kappa, V domains shown, Humanized IgG4 (S228P)/kappa) VH: QVQLVQSGAEVKKPGASVKVSCKASGYTFTDYYMNWVKQAPGQGLEWIGDIIPNNGGSKYNQKFKDRVTMTTDTSTSTAYMELRSLRSEDTAVYYCATWGYGSSYRWFDYWGQGTLVTVSS VL: DIQMTQSPSSLSASVGDRVTITCLASQPIGIWLAWYQQKPGKSPKLLIYAATSLADGVPSRFSGSGSGTDFTFTISSLQPEDIATYYCQQLYSSPWTFGGGTKVEIKR ; what EC50 value has been reported?
Ans. 0.124

Qu. Suppose we examine the binder h1701-013 (antibody, human IgG4 S228P, kappa, V domains shown, Humanized IgG4 (S228P)/kappa) VH: QVQLVQSGAEVKKPGASVKVSCKASGYTFTDYYMNWVKQAPGQGLEWIGDIIPNNGGSKYNQKFKDRVTMTTDTSTSTAYMELRSLRSEDTAVYYCATWGYGSSYRWFDYWGQGTLVTVSS VL: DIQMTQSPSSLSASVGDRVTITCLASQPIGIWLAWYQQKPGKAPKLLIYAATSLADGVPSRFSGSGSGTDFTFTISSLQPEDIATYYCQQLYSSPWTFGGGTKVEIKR ; what EC50 value has been reported?
Ans. 0.199

Qu. Suppose we examine the binder Ch1799 (antibody, human IgG4 S228P, kappa, V domains shown) VH: EVKLVESEGGLVQPGSSMKLSCTASGFTFSDYYMAWVRQVPEKGLEWVANINYDGSSTYYLDSLKSRFIISRDNAKNILYLQMNSLKSDDTATYYCARDVGYYGGNYGFAYWGQGTLVTVSA VL: DIQMTQSPASLSASVGETVTITCRASDNIYSYLAWYQQKQGKSPQLLVYNAKTLAEGVPSRFSGSGSGTQFSLKINSLQPEDFGSYYCQQHYGSPLTFGAGTKLELKR ; what EC50 value has been reported?
Ans. 0.08
